The compounds listed here are annotated with their %Inh.
system: JAK1(JH2domain-pseudokinase); details: concentration: 1 μM, replicates: in singlicate; n = 1;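 further: KINOMEscan kinase panel screen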
Number only, in %; omit the unit.

Examples with their reported %Inh follow.
{"Compound": "CN(C(=O)c1ccc(-c2cc(-c3c[nH]nc3-c3ccccn3)ccn2)cc1)C1CCOCC1", "Test target": "JAK1(JH2domain-pseudokinase)", "Display unit": "%", "%Inh": 0}
{"Compound": "O=C(NCCNc1ccnc(Nc2ccc(F)cc2)n1)Nc1ccccc1F", "Test target": "JAK1(JH2domain-pseudokinase)", "Display unit": "%", "%Inh": 0}
{"Compound": "CCCCCc1nc2c(N)ncnc2n1CCCCC", "Test target": "JAK1(JH2domain-pseudokinase)", "Display unit": "%", "%Inh": 35}
{"Compound": "O=C(NCCNc1ccnc(Nc2ccc(F)cc2)n1)c1cc2ccccc2s1", "Test target": "JAK1(JH2domain-pseudokinase)", "Display unit": "%", "%Inh": 0}
{"Compound": "O=C1Cc2cc(Nc3nc(NCc4cccc(S(=O)(=O)C(F)(F)F)c4)ncc3C(F)(F)F)ccc2N1", "Test target": "JAK1(JH2domain-pseudokinase)", "Display unit": "%", "%Inh": 0}

Suppose we examine the compound Cl.Nc1ncnc2occ(-c3ccc(NC(=O)Nc4cc(C(F)(F)F)ccc4F)cc3)c12 ; what %Inh value has been reported?
7

Suppose we examine the compound O=C1NC(=O)C(N2CCc3ccccc32)=C1c1cccc(Cl)c1 ; what %Inh value has been reported?
0

Suppose we examine the compound NS(=O)(=O)CCc1cccc(Nc2nccc(-c3c(-c4cccc(NC(=O)c5c(F)cccc5F)c4)nn4ccccc34)n2)c1 ; what %Inh value has been reported?
0

Suppose we examine the compound CN1c2ccc(CNc3ccc(F)cc3)cc2-c2c(cnn2C)S1(=O)=O ; what %Inh value has been reported?
20

Suppose we examine the compound COc1ccc(Nc2nccc(N3CCC(NC(=O)Nc4cc(C)ccc4C)C3)n2)cc1 (stereo not shown) ; what %Inh value has been reported?
0

====

The compounds listed here are annotated with their %Inh.
test system: ARK5; construct: gene NUAK1; details: concentration: 1 μM, replicates: in singlicate; n = 1
Number only, in %; omit the unit.

Form field: %Inh recorded for C[C@@H](Oc1cc(-n2cnc3ccc(NC(=O)NC(C)(C)C)cc32)sc1C(N)=O)c1ccccc1Cl [GSK346294] with ARK5 (enter value)
11

Form field: %Inh recorded for COc1ccc(CNC(=O)NC2CCN(c3ccnc(Nc4ccc(OC)cc4)n3)C2)cc1 (centres unmarked) [GSK1379727] with ARK5 (enter value)
0

Form field: %Inh recorded for CC(C)(C)n1cnc2c(N)ncnc21 [SKF-97359] with ARK5 (enter value)
19

Form field: %Inh recorded for c1ccc(-c2n[nH]cc2-c2ccnc3ccccc23)nc1 [GW271431] with ARK5 (enter value)
5

Form field: %Inh recorded for COc1ccc(S(=O)(=O)NC2CCN(c3cc(C)nc(Nc4cccc(C#N)c4)n3)CC2)cc1.O=C(O)C(F)(F)F [GSK1653539] with ARK5 (enter value)
8

====

The compounds listed here are annotated with their %Inh.
test system: BMPR2; details: concentration: 1 μM, replicates: in singlicate; n = 1
Number only, in %; omit the unit.

Examples with their reported %Inh follow.
{"Compound": "Fc1ccc(-c2ncn(CCCN3CCOCC3)c2-c2ccccn2)cc1", "Display unit": "%", "%Inh": 0}
{"Compound": "COc1ccc(S(=O)(=O)NC2CCN(c3cc(C)nc(Nc4cccc(C#N)c4)n3)CC2)cc1.O=C(O)C(F)(F)F", "Display unit": "%", "%Inh": 0}
{"Compound": "Cl.Nc1ncnc2occ(-c3ccc(NC(=O)Nc4cc(C(F)(F)F)ccc4F)cc3)c12", "Display unit": "%", "%Inh": 1}
{"Compound": "O=C(NCCCN1CCOCC1)c1cccc(Nc2nccc(Nc3ccc(Oc4ccccc4)cc3)n2)c1", "Display unit": "%", "%Inh": 15}
{"Compound": "O=c1cc(N2CCOCC2)nc2n(Cc3cccc(F)c3)ccn12", "Display unit": "%", "%Inh": 0}
{"Compound": "NS(=O)(=O)CCc1cccc(Nc2nccc(-c3c(-c4cccc(NC(=O)c5c(F)cccc5F)c4)nn4ccccc34)n2)c1", "Display unit": "%", "%Inh": 0}
{"Compound": "Cc1nnc(-c2ccc3ncc(-c4ccc(S(C)=O)cc4)n3c2)o1 (stereo not drawn)", "Display unit": "%", "%Inh": 18}
{"Compound": "CCn1cnc2c(N)ncnc21", "Display unit": "%", "%Inh": 35}
{"Compound": "COc1cc2c(cc1OCCN1CCN(C)CC1)ncc1c3ccc(C#N)cc3[nH]c21", "Display unit": "%", "%Inh": 0}
{"Compound": "CN(C1=C(c2ccccc2)C(=O)NC1=O)c1ccccc1", "Display unit": "%", "%Inh": 0}

Suppose we examine the compound NS(=O)(=O)c1cccc(-c2ccc3ncc(N4CCOCC4)nc3c2)c1 ; what %Inh value has been reported?
2

Suppose we examine the compound O=c1cc(N2CCOCC2)nc2n(Cc3cccc4ccccc34)ccn12 ; what %Inh value has been reported?
0

Suppose we examine the compound N#Cc1c(N2CCOCC2)sc(-c2ccn[nH]2)c1-c1ccc(Cl)cc1 ; what %Inh value has been reported?
17

Suppose we examine the compound Cc1nnc(-c2ccc3occ(-c4ccc(C(C)O)cc4)c3c2)o1 (stereo not drawn) ; what %Inh value has been reported?
2

Suppose we examine the compound CC(C)(C)n1cnc2c(N)ncnc21 ; what %Inh value has been reported?
36

Suppose we examine the compound COC(=O)Nc1nc2cc(Oc3ccc(NC(=O)Nc4cc(F)ccc4F)cc3)ccc2[nH]1.Cl ; what %Inh value has been reported?
24

Suppose we examine the compound O=C(c1ccc(-c2cc(-c3c[nH]nc3-c3ccccn3)ccn2)cc1)N1CCOCC1 ; what %Inh value has been reported?
16

Suppose we examine the compound O=C(NCCNc1ccnc(Nc2ccc(F)cc2)n1)c1cc2ccccc2s1 ; what %Inh value has been reported?
15

====

system: RSK3(Kin.Dom.1-N-terminal); construct: gene RPS6KA2; conditions: concentration: 1 μM, replicates: in singlicate; n = 1
Observation type: %Inh (%)
Number only, in %; omit the unit.

Suppose we examine the compound NCC(NC(=O)c1cc(-c2cn[nH]c2)c(-c2ccnc3[nH]ccc23)s1)c1ccccc1.O=C(O)C(F)(F)F.O=C(O)C(F)(F)F (stereo not drawn) ; what %Inh value has been reported?
7

====

test system: TLK1; settings: concentration: 1 μM, replicates: in singlicate; n = 1
Observation type: %Inh (%)
Number only, in %; omit the unit.

Examples with their reported %Inh follow.
{"Molecule": "Cc1nnc(-c2ccc3occ(-c4ccc(C(C)O)cc4)c3c2)o1 (centres unmarked)", "Display unit": "%", "%Inh": 0}
{"Molecule": "CCc1nc(-c2cccc(C)c2)c(-c2ccnc(NCc3ccccc3)c2)s1", "Display unit": "%", "%Inh": 22}
{"Molecule": "Cn1cc(-c2ccc3c(c2)CCN3C(=O)Cc2ccccc2Cl)c2c(N)ncnc21 [GSK2608885]", "Display unit": "%", "%Inh": 29}
{"Molecule": "NS(=O)(=O)CCc1cccc(Nc2nccc(-c3c(-c4cccc(NC(=O)c5c(F)cccc5F)c4)nn4ccccc34)n2)c1 [GSK336735]", "Display unit": "%", "%Inh": 8}
{"Molecule": "NS(=O)(=O)c1cccc(-c2ccc3ncc(N4CCOCC4)nc3c2)c1 [GSK1535721]", "Display unit": "%", "%Inh": 9}
{"Molecule": "COC(=O)Nc1nc2cc(Oc3ccc(NC(=O)Nc4cc(F)ccc4F)cc3)ccc2[nH]1.Cl [GW701424]", "Display unit": "%", "%Inh": 0}
{"Molecule": "COc1ccc(S(=O)(=O)NC2CCN(c3cc(C)nc(Nc4cccc(C#N)c4)n3)CC2)cc1.O=C(O)C(F)(F)F [GSK1653539]", "Display unit": "%", "%Inh": 8}
{"Molecule": "Nc1nc(-c2ccc3c(N)n[nH]c3c2)cc(N2CCCC2)n1 [GSK2227430]", "Display unit": "%", "%Inh": 3}
{"Molecule": "Cc1ccc(C(=O)NCC(N)=O)cc1-n1c(C)cc(OCc2ccc(F)cc2F)c(Br)c1=O", "Display unit": "%", "%Inh": 0}
{"Molecule": "O=C(Nc1n[nH]c2cc(-c3cccc(F)c3)ccc12)C1CC1 [SB-735464]", "Display unit": "%", "%Inh": 16}

Suppose we examine the molecule NCC(NC(=O)c1cc(-c2cn[nH]c2)c(-c2ccnc3[nH]ccc23)s1)c1ccccc1.O=C(O)C(F)(F)F.O=C(O)C(F)(F)F (centres unmarked) [GSK1325775] ; what %Inh value has been reported?
5

Suppose we examine the molecule Fc1ccc(-c2nn3c(OCC(F)(F)F)cccc3c2-c2ccncc2)cc1 [GW514784] ; what %Inh value has been reported?
0

Entry source: paper PMC5540273
